test: Half life in Sprague-Dawley rat at 1 mg/kg, iv or 10 mg/kg po
Format: ADME, organism-based
condition-set: in vivo
Listed compounds paired with reported half-life
endpoint-name: half-life (h)

>>> value_measured("CN1CCCC1COc1cc(Nc2nc3cc(Oc4ccnc5[nH]ccc45)ccc3o2)ccc1Cl (single isomer, unassigned)")
2.87
>>> value_measured("CNC(=O)c1cc(Oc2ccc3oc(Nc4ccc(Cl)c(OC[C@@H]5CCCN5C)c4)nc3c2)ccn1")
1.8
>>> value_measured("COc1cc2ncnc(Oc3ccc4oc(Nc5ccc(Cl)c(OC[C@@H]6CCCN6C)c5)nc4c3)c2cc1OC")
6.14
>>> value_measured("CN1CCC[C@@H]1COc1cc(Nc2nc3cc(Oc4ccnc5ccccc45)ccc3[nH]2)ccc1C(F)(F)F")
4.8
>>> value_measured("COc1cc2nccc(Oc3ccc4oc(Nc5ccc(Cl)c(CN6CCN(C)CC6)c5)nc4c3)c2cc1OC")
5.53

---

test: Volume of distribution at steady state in Sprague-Dawley rat at 1 mg/kg, iv
Type: ADME, organism-based
Parameters: dose 1 mg/kg, route intravenous
condition-set: in vivo, read-out: Vdss
Returns rule met if the recorded Vd is greater than or equal to 8 L/kg, and rule not met otherwise.

>>> qualitative_label("CN1CCCC1COc1cc(Nc2nc3cc(Oc4ccnc5[nH]ccc45)ccc3o2)ccc1Cl (single isomer, unassigned)")
"rule not met"
>>> qualitative_label("CNC(=O)c1cc(Oc2ccc3oc(Nc4ccc(Cl)c(OC[C@@H]5CCCN5C)c4)nc3c2)ccn1")
"rule met"
>>> qualitative_label("COc1cc2ncnc(Oc3ccc4oc(Nc5ccc(Cl)c(OC[C@@H]6CCCN6C)c5)nc4c3)c2cc1OC")
"rule not met"
>>> qualitative_label("COc1cc2nccc(Oc3ccc4oc(Nc5ccc(Cl)c(CN6CCN(C)CC6)c5)nc4c3)c2cc1OC")
"rule met"
>>> qualitative_label("CN1CCC[C@@H]1COc1cc(Nc2nc3cc(Oc4ccnc5ccccc45)ccc3[nH]2)ccc1C(F)(F)F")
"rule not met"

---

Listed compounds paired with reported pKi
target-or-system: Vascular endothelial growth factor receptor 2 (Homo sapiens, UniProt P35968)
Sequence (P35968 whole entry): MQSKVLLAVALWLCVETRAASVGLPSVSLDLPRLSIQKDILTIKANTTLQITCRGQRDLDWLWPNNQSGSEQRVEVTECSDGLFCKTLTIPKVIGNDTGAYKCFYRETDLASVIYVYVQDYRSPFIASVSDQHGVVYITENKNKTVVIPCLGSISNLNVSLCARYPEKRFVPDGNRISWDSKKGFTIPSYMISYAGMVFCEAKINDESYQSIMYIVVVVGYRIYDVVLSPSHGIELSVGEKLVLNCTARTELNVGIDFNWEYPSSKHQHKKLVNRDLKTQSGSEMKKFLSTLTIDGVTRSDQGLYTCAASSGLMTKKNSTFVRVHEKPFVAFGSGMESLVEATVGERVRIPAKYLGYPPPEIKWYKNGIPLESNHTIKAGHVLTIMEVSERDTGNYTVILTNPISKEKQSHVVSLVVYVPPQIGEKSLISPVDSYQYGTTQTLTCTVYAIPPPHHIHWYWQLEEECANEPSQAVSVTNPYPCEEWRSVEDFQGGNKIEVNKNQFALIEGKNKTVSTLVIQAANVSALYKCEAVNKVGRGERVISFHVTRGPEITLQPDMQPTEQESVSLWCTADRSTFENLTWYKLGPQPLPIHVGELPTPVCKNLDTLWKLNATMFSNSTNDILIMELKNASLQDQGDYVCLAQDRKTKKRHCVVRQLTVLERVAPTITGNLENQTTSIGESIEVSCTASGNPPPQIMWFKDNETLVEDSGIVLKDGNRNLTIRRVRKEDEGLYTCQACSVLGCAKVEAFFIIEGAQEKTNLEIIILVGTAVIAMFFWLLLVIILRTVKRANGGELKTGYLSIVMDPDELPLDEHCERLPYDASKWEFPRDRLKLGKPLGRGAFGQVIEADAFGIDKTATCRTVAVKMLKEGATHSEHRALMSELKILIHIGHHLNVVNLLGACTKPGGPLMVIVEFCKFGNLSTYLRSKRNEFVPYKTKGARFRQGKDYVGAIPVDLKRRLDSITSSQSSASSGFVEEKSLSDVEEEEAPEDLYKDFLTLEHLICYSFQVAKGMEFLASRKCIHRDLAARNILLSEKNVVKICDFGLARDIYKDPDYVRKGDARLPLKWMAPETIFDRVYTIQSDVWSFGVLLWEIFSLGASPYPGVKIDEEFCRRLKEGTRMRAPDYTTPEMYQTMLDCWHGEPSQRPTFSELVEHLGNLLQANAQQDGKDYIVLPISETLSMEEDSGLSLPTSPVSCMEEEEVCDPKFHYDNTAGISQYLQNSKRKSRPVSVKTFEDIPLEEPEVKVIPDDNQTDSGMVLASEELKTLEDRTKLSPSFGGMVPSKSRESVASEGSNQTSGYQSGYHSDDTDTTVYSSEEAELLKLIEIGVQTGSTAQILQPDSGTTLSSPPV
test: Inhibition of KDR phosphorylation
pKi: −log10 of the molar value.
endpoint-name: pKi

>>> value_measured("CN1CCN(Cc2cc(Nc3nc4cc(Oc5ccnc6ccccc56)ccc4o3)ccc2Cl)CC1")
8.44
>>> value_measured("CNc1nccc(Oc2ccc3[nH]c(Nc4ccc(Cl)c(CN5CCN(C)CC5)c4)nc3c2)n1")
7.40
>>> value_measured("CNC(=O)c1cc(Oc2ccc3[nH]c(Nc4ccc(Cl)c(CN5CCN(C)CC5)c4)nc3c2)ccn1")
8.41
>>> value_measured("CNC(=O)c1cc(Oc2ccc3[nH]c(Nc4ccc(C(F)(F)F)c(OC[C@H]5CCCN5C)c4)nc3c2)ccn1")
8.70
>>> value_measured("COc1cc2nccc(Oc3ccc4[nH]c(Nc5ccc(Cl)c(CN6CCN(C)CC6)c5)nc4c3)c2cc1OC")
9.70
>>> value_measured("CNC(=O)c1cc(Oc2ccc3[nH]c(Nc4ccc(C(F)(F)C(F)(F)F)c(OC[C@H]5CCCN5C)c4)nc3c2)ccn1")
8.05

---

test: Oral bioavailability in Sprague-Dawley rat at 3 mg/kg, po
Assay type: ADME, organism-based
condition-set: in vivo
endpoint-name: bioavailability (%)

>>> value_measured("CNC(=O)c1cc(Oc2ccc3oc(Nc4ccc(Cl)c(OC[C@@H]5CCCN5C)c4)nc3c2)ccn1")
40
